Where do these numbers come from? They come from patent US20250011307A1.

Assay: Excipient compatibility stress test (HPLC degradation products, color)
Format: physicochemical
Conditions: Compound B forms, 2 weeks 50° C./closed, 1% in HGC powder
Where a name gives a salt, the structure may show the parent alone.
QUANTITY NAME: DP[%] degradation products (%)
Report as a plain number; the unit % is understood.

* CNC[C@]1(c2ccccc2)Oc2cc(F)c(Cl)c(-c3c(C(N)=O)ccc(OC)c3F)c2[C@@H]1C [Compound B Free form, amorphous] | 1.87
* CNC[C@]1(c2ccccc2)Oc2cc(F)c(Cl)c(-c3c(C(N)=O)ccc(OC)c3F)c2[C@@H]1C [Compound B L-malate salt] | 0.24
* CNC[C@]1(c2ccccc2)Oc2cc(F)c(Cl)c(-c3c(C(N)=O)ccc(OC)c3F)c2[C@@H]1C [Compound B L-lactate salt] | 0.22

API: the following record is the query input.
Prompt line: So what does the record say about DP[%] degradation products for CNC[C@]1(c2ccccc2)Oc2cc(F)c(Cl)c(-c3c(C(N)=O)ccc(OC)c3F)c2[C@@H]1C [Compound B Succinate salt] ?
Response line: 0.15

====

Assay: Solid state bulk stability stress test (HPLC degradation products, color, XRPD)
Type: physicochemical
Conditions: Compound B forms, 2 weeks 80° C./75% RH
Where a name gives a salt, the structure may show the parent alone.
Overview of reported DP[%] degradation products, Bulk (HPLC) across a group of molecules:

// known answers, use as guide
* CNC[C@]1(c2ccccc2)Oc2cc(F)c(Cl)c(-c3c(C(N)=O)ccc(OC)c3F)c2[C@@H]1C [Compound B L-lactate salt] | 2.11%
* CNC[C@]1(c2ccccc2)Oc2cc(F)c(Cl)c(-c3c(C(N)=O)ccc(OC)c3F)c2[C@@H]1C [Compound B Free form, amorphous] | 14.88%
* CNC[C@]1(c2ccccc2)Oc2cc(F)c(Cl)c(-c3c(C(N)=O)ccc(OC)c3F)c2[C@@H]1C [Compound B L-malate salt] | 2.84%

Prompt line: So what does the record say about DP[%] degradation products, Bulk (HPLC) for CNC[C@]1(c2ccccc2)Oc2cc(F)c(Cl)c(-c3c(C(N)=O)ccc(OC)c3F)c2[C@@H]1C [Compound B Succinate salt] ?
Response line: 0.17%

====

Assay: Solubility after equilibration at 25° C. for 24 h, with final pH and XRPD of solid residues
Assay type: physicochemical
Conditions: Compound B forms, pH 4.7, 50 mM acetate buffer
Counter-ions that a name gives are not always drawn.
QUANTITY NAME: final pH

- CNC[C@]1(c2ccccc2)Oc2cc(F)c(Cl)c(-c3c(C(N)=O)ccc(OC)c3F)c2[C@@H]1C [Compound B Succinate salt]: [4.70]
- CNC[C@]1(c2ccccc2)Oc2cc(F)c(Cl)c(-c3c(C(N)=O)ccc(OC)c3F)c2[C@@H]1C [Compound B L-lactate salt]: [4.70]

====

Experiment: Xenon light stress test of bulk (HPLC degradation products, color, XRPD)
Format: physicochemical
Conditions: Compound B forms; Xenon light (1200 kLuxh, 25° C.), amber vial
Structures can show the parent of a compound that is named as a salt.
QUANTITY NAME: DP[%] degradation products, Bulk amber vial (HPLC)

// known answers, use as guide
• CNC[C@]1(c2ccccc2)Oc2cc(F)c(Cl)c(-c3c(C(N)=O)ccc(OC)c3F)c2[C@@H]1C [Compound B L-lactate salt] = 0.17%
• CNC[C@]1(c2ccccc2)Oc2cc(F)c(Cl)c(-c3c(C(N)=O)ccc(OC)c3F)c2[C@@H]1C [Compound B Succinate salt] = 0.13%
• CNC[C@]1(c2ccccc2)Oc2cc(F)c(Cl)c(-c3c(C(N)=O)ccc(OC)c3F)c2[C@@H]1C [Compound B L-malate salt] = 0.16%

Prompt line: So what does the record say about DP[%] degradation products, Bulk amber vial (HPLC) for CNC[C@]1(c2ccccc2)Oc2cc(F)c(Cl)c(-c3c(C(N)=O)ccc(OC)c3F)c2[C@@H]1C [Compound B Free form, amorphous] ?
Response line: 0.19%
